- Experimental Protocol: E. coli acrAB mutant growth effects, primary screen, E. coli filamentation inducers, strain DRC39, OD650, 48 h (AID 1179);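 further: screen aims at cell division blockers that make cells filament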
- Experimental Parameters: E. coli DRC39 delta-acrAB growth, higher = more signal, called active from +8 up or from −8 down
Label t when z-score is at or above 0.03; anything below gets f.

Some solved entries appear below for comparison.
| Molecule | Category Label |
| --- | --- |
| CCCC[C@@H]1C[C@H]1[C@@H](NC(=O)c1cccs1)c1ccc(C(F)(F)F)cc1 | f |
| [N-]=[N+]=Nc1ccccc1C[C@]1(C(N)=O)N=C(c2ccc(OCCCO)cc2)O[C@H]1c1ccccc1N=[N+]=[N-] | f |
| C=CCC(OC(C)=O)[C@@H]1[C@@H](N(Cc2ccc(-c3cccc(C(F)(F)F)c3)o2)C(=O)c2ccc(C)cc2)c2cc(OCCCO)ccc2N1C(=O)c1ccc2ccccc2c1 (some centres undefined) | t |

In plain terms: is recorded z-score at least 0.03 for `C=C[C@@H](COC(C)=O)N(C(=O)OC(C)(C)C)S(=O)(=O)c1ccc(Br)cc1` ?
t

In plain terms: is recorded z-score at least 0.03 for C[C@H]1NC(=O)[C@@]23C(=O)N[C@@H](Cc4ccccc4)C2[C@H](C)[C@@]2(C)O[C@H]2C3/C=C/C/C=C\CNC(=O)[C@H](Cc2ccccc2)NC1=O (some centres undefined) ?
t

In plain terms: is recorded z-score at least 0.03 for `NC(=O)NCC#Cc1ccc2c(c1)[C@]1(C(=O)N2)[C@H](C(=O)NC[C@H](O)c2ccccc2)[C@H]2C(=O)O[C@H](c3ccccc3)[C@H](c3ccccc3)N2[C@@H]1c1ccc(OCCO)cc1` ?
t

In plain terms: is recorded z-score at least 0.03 for [N-]=[N+]=NCc1ccccc1[C@H]1OC(c2ccc(OCCCO)cc2)=N[C@@]1(CCS(=O)(=O)c1ccccc1)C(=O)NCC(O)CO (some centres undefined) ?
f

In plain terms: is recorded z-score at least 0.03 for `[N-]=[N+]=Nc1ccccc1C[C@]1(C(=O)N2CCOCC2)N=C(c2ccc(OCCCO)cc2)O[C@H]1c1ccccc1` ?
t

====

- Experimental Target: Calmodulin-1 (Homo sapiens) (UniProt P0DP23)
- Experimental Protocol: calcium-bound CALM1 binders on microarrays, profiling panel, artefact control for SMM control-protein annotation, biochemical, small-molecule microarray, Cy5-labelled CALM1, plus calcium (AID 1112);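 further: score merges spot fluorescence with signal to noise from triplicate slides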
- Experimental Parameters: Cy5-CALM1 binding fluorescence, higher = more signal
Label rule met when composite z-score is at or above -0.1; anything below gets rule not met.

Some solved entries appear below for comparison.
| Molecule | Category Label |
| --- | --- |
| O=C(CS)NCCCCCNC(=O)[C@@H]1C[C@@H]2C(=O)N3CCC[C@H]3C(=O)N2[C@@H]1c1cccc(OCCO)c1 | rule not met |
| COc1ccc([Si](C)(C)[C@@H]2[C@@H](CCO)O[C@]3(C(=O)N(Cc4ccc(N5CCCCC5=O)cc4)c4ccccc43)[C@H]2C)cc1 | rule met |
| NC(=O)NCC#Cc1ccc2c(c1)[C@]1(C(=O)N2)[C@H](C(=O)NC[C@H](O)c2ccccc2)[C@H]2C(=O)O[C@H](c3ccccc3)[C@H](c3ccccc3)N2[C@@H]1c1ccc(OCCO)cc1 | rule met |

In plain terms: is recorded composite z-score at least -0.1 for `CCOC(=O)C1=C[C@@H](c2ccccc2)N(S(=O)(=O)c2ccc(C)cc2)[C@H]1c1ccccc1Cl` ?
rule not met

In plain terms: is recorded composite z-score at least -0.1 for CC(C)(C)N1CC=CC23O[C@@H]4C=CCOC(=O)[C@@H]4[C@H]2C(=O)N(CCCCCCO)[C@@H]3C1=O (some centres not stated) ?
rule not met

In plain terms: is recorded composite z-score at least -0.1 for `CC(C)(C)OC(=O)CC[C@]1(C(=O)NCc2ccccc2)N=C(c2ccc(OCCCO)cc2)O[C@H]1c1ccccc1CN=[N+]=[N-]` ?
rule not met

In plain terms: is recorded composite z-score at least -0.1 for `C=CCN1C(=O)[C@@]2(O[C@@H](CCn3cc([C@H](O)c4ccccc4)nn3)[C@H]([Si](C)(C)c3ccc(OC)cc3)[C@H]2C)c2cc(N3CCC3=O)ccc21` ?
rule met

====

- System: Lefty1
- Experimental Protocol: Lefty1 binders on small-molecule microarrays, primary screen, biochemical, small-molecule microarray, 635/667 nm fluorescence (AID 1139)
- Experimental Parameters: small-molecule microarray binding, fluorescence 635/667; higher = more signal
This listing pairs molecules with measured composite z-score.

Known results for molecules:
| Molecule | Experimental Target | composite z-score |
| --- | --- | --- |
| CC(C)(C)OC(=O)CC[C@@]1(C(=O)NCc2ccccc2)N=C(c2ccc(OCCCO)cc2)O[C@@H]1c1ccccc1N=[N+]=[N-] | Lefty1 | 0.432 |
| COCC1=C2[C@@H](CCc3ccccc3)OB(O)C[C@@H]2[C@@H]2C(=O)C=CC(=O)[C@@H]2C1 | Lefty1 | 0.654 |
| CC(CO)N1C(=O)[C@@H]2[C@H]3C(=O)OCC=C[C@H]3OC23C=CCN(Cc2ccccc2)C(=O)[C@@H]13 (stereo partly drawn) | Lefty1 | -0.279 |
| COCCOC(=O)N1C(=O)[C@@]2(c3cc(C#CC4=CCCCC4)ccc31)[C@H](C(N)=O)[C@H]1C(=O)O[C@H](c3ccccc3)[C@H](c3ccccc3)N1[C@@H]2c1ccccc1OCCO | Lefty1 | 0.943 |
| COc1cc(OC)c(C(O)C2C=CC3C(=O)N(c4ccccc4)C(=O)C3N2Nc2ccccc2)cc1Br (stereo not drawn) | Lefty1 | 0.387 |

Note down composite z-score recorded for `O=C1O[C@@H](c2ccccc2)[C@@H](c2ccccc2)N2[C@@H](c3ccc(O)cc3)[C@]3(C(=O)Nc4ccc(C#CC5=CCCCC5)cc43)[C@@H](C(=O)NC[C@H](O)c3ccccc3)[C@H]12`
0.907

Note down composite z-score recorded for CCOc1cc(C(O)C2C=CC3C(=O)N(C)C(=O)C3N2Nc2ccccc2)ccc1O (stereo not drawn)
-0.0696

Note down composite z-score recorded for `C=CC[C@@]1(C(=O)N2CCOCC2)N=C(c2ccc(OCCCO)cc2)O[C@@H]1c1ccccc1CN=[N+]=[N-]`
0.349

====

- Test system: Neuregulin-1 EGF-like domain
- Experimental Protocol: binders of neuregulin-1 EGF-like domain, primary screen, biochemical, small-molecule microarray, 635 nm fluorescence (AID 1081);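 further: binding of the protein to compounds printed on small-molecule microarray slides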
- Experimental Parameters: small-molecule microarray binding, higher = more signal
Label Met when composite z-score is at or above 1; anything below gets Not met.

Some solved entries appear below for comparison.
| Compound | Category Label |
| --- | --- |
| COc1ccc([Si](C)(C)[C@H]2[C@H](CCO)O[C@@]3(C(=O)N(Cc4cccc(N5C(=O)COc6ccccc65)c4)c4ccccc43)[C@@H]2C)cc1 | Not met |
| COCCOC(=O)N1C(=O)[C@@]2(c3cc(C#Cc4ccc(OC)cc4)ccc31)[C@H](C(=O)Nc1nc3ccccc3s1)[C@H]1C(=O)O[C@H](c3ccccc3)[C@H](c3ccccc3)N1[C@@H]2c1ccc(O)cc1 | Met |
| CCOC(=O)c1ccc(NC(=O)O[C@H]2[C@H](OC(=O)Nc3ccc4c(c3)OCO4)[C@@H](OC(=O)Nc3ccc4c(c3)OCO4)[C@@H](OC)O[C@@H]2CO)cc1 | Met |
| [N-]=[N+]=NCc1ccccc1[C@@H]1OC(c2ccc(OCCCO)cc2)=N[C@]1(CCS(=O)(=O)c1ccccc1)C(=O)NCC(O)CO (stereo partly specified) | Met |
| O=C(NCCCCCNC(=O)/C(Cc1ccccc1)=N/O)OCc1ccccc1 | Not met |

Consider the record given below.
In plain terms: is recorded composite z-score at least 1 for `COCCCNC(=O)[C@@]1(Cc2ccccc2CN=[N+]=[N-])N=C(c2ccc(OCCCO)cc2)O[C@H]1c1ccccc1` ?
Met

====

- Experimental Target: Neurogenic locus notch homolog protein 2 (Homo sapiens) (UniProt Q04721)
- Sequence (Q04721 whole entry, looked up): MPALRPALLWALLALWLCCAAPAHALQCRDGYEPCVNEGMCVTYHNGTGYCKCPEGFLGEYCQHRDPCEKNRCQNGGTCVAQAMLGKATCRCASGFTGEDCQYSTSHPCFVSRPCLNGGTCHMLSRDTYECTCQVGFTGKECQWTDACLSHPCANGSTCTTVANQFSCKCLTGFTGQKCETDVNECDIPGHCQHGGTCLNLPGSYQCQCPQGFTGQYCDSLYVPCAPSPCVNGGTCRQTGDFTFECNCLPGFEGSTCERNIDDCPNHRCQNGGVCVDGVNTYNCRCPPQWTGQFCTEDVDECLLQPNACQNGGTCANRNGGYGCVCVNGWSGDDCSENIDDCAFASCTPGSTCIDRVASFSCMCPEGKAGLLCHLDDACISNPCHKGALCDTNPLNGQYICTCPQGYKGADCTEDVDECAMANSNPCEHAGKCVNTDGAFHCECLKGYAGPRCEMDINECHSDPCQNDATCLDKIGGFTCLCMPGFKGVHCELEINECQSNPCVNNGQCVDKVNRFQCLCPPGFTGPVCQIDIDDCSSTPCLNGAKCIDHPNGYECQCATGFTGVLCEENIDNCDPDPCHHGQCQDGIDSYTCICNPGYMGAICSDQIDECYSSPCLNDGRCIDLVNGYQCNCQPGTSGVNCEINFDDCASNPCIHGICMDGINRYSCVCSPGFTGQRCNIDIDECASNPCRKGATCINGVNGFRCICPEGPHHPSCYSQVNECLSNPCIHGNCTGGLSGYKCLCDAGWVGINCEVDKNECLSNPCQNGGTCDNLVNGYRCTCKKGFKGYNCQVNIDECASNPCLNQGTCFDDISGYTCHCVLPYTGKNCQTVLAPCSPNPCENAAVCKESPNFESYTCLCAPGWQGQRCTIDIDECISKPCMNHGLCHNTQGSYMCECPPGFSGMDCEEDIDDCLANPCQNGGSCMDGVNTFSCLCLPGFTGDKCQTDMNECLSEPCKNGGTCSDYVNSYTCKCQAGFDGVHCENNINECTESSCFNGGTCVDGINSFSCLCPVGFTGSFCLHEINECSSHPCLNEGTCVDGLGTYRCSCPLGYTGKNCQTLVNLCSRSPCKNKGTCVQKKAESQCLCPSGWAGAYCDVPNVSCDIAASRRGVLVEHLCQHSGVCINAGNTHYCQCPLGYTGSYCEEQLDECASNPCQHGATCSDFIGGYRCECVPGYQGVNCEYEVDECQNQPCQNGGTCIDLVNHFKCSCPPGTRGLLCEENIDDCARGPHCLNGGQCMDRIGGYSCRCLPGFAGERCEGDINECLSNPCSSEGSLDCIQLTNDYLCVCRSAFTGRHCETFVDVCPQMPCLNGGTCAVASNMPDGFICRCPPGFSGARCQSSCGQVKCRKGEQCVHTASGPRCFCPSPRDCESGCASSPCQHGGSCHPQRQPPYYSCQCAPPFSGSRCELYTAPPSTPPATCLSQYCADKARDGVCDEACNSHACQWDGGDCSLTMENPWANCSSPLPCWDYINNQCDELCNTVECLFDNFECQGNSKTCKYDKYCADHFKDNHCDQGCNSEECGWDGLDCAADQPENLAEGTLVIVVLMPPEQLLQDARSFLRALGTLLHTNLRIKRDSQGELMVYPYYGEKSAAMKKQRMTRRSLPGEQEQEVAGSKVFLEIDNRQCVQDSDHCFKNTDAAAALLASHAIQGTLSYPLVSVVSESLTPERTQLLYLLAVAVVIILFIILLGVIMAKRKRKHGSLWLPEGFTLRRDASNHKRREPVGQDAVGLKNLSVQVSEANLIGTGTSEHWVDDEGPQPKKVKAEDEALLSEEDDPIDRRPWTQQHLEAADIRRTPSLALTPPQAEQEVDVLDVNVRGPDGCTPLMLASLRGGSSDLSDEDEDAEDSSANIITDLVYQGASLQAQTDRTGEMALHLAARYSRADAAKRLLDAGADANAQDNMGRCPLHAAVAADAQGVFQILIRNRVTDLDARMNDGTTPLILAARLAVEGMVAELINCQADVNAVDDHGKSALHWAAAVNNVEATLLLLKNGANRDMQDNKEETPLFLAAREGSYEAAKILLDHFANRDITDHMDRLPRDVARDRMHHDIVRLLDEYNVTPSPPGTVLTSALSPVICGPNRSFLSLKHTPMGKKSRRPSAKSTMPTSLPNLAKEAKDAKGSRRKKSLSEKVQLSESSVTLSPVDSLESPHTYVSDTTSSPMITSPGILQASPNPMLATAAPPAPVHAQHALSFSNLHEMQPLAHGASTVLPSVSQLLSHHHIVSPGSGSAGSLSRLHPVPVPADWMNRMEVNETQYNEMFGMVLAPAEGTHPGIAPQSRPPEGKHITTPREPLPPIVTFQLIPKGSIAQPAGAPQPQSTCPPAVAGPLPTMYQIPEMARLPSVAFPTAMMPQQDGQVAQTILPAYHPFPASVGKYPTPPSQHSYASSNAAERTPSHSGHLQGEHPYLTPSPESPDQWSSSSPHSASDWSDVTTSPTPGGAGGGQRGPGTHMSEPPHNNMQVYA
- Experimental Protocol: Notch2 binders on small-molecule microarrays, primary screen, biochemical, small-molecule microarray, 635 nm fluorescence, stem cell growth factors (AID 1073)
- Experimental Parameters: Notch2 binding, higher = more signal
This listing pairs compounds with measured composite z-score.
Reply with the value as a number alone.

Known results for compounds:
| Compound | Value Measured |
| --- | --- |
| COCCCNC(=O)[C@@]1(Sc2ccc(C)cc2)CC(=O)N(C2CCCCC2)[C@@H]1c1ccc(CO)cc1 | -0.957 |
| CCOC(=O)C[C@H]1[C@H](OC(=O)c2cc3ccccc3oc2=O)[C@@H](NC(=O)Cc2ccc(OC)cc2)c2cc(OCCCO)ccc2N1C(=O)c1ccc2ccccc2n1 | 0.848 |
| Cn1cccc1C(O)C1C=CC2C(=O)NC(=O)C2N1Nc1ccc(Cl)cc1Cl (stereo not given) | 1.68 |

Note down composite z-score recorded for `COCCOC(=O)N1C(=O)[C@@]2(c3cc(C#CC4(O)CCCCCC4)ccc31)[C@H](c1ccc(O)cc1)N1[C@H](c3ccccc3)[C@H](c3ccccc3)OC(=O)[C@H]1[C@@H]2C(=O)NC[C@H](O)c1ccccc1`
1.29

Note down composite z-score recorded for `COCCOC(=O)N1C(=O)[C@@]2(c3cc(C#CC4=CCCCC4)ccc31)[C@H](c1ccc(O)cc1)N1[C@H](c3ccccc3)[C@H](c3ccccc3)OC(=O)[C@H]1[C@@H]2C(=O)N1CCN(c2ncccn2)CC1`
-1.58

Where do the numbers come from? From PubChem BioAssay.
